experimental target: UniProt P10415
Sequence (P10415 whole entry): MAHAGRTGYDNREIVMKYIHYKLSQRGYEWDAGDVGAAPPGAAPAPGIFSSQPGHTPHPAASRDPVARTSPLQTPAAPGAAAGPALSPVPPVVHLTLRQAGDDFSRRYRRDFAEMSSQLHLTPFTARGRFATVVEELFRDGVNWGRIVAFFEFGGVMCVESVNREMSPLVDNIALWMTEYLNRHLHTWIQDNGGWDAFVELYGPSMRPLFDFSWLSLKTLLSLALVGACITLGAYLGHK
run description: TR-FRET binding assay, GST-Bcl-2 with F-Bak peptide probe
test context: TR-FRET Binding Affinity
attribute measured: Ki

Please review the following examples before continuing.
{"compound": "CC1(C)CCC(CN2CCN(c3ccc(C(=O)NS(=O)(=O)c4ccc(NCC5CCOC5)c([N+](=O)[O-])c4)c(Oc4cccc5[nH]cnc45)c3)CC2)=C(c2ccc(Cl)cc2)C1 (centres unmarked) [Example 439]", "experimental target": "UniProt P10415", "attribute measured": "Ki", "result": "< 0.01 nM"}
{"compound": "CC1(C)CCC(CN2CCN(c3ccc(C(=O)NS(=O)(=O)c4ccc(NCC5COCCO5)c([N+](=O)[O-])c4)c(Oc4cccc5[nH]cnc45)c3)CC2)=C(c2ccc(Cl)cc2)C1 (centres unmarked) [Example 450]", "experimental target": "UniProt P10415", "attribute measured": "Ki", "result": "0.299 nM"}
{"compound": "O=C(NS(=O)(=O)c1cnc(OCC2(F)CCOCC2)c(Cl)c1)c1ccc(N2CCN(CC3=C(c4ccc(Cl)cc4)CCC(F)(F)C3)CC2)cc1Oc1cccc2[nH]ncc12 [Example 521]", "experimental target": "UniProt P10415", "attribute measured": "Ki", "result": "< 0.01 nM"}
{"compound": "CC1(C)CCC(CN2CCN(c3ccc(C(=O)NS(=O)(=O)c4cnc(OC[C@@H]5C[C@H]6C[C@@H]5C[C@@]6(C)O)c(Cl)c4)c(Oc4cccc5[nH]ncc45)c3)CC2)=C(c2ccc(Cl)cc2)C1 [Example 520]", "experimental target": "UniProt P10415", "attribute measured": "Ki", "result": "< 0.01 nM"}

Okay, next one:
Look up Ki of CC1(C)CCC(CN2CCN(c3ccc(C(=O)NS(=O)(=O)c4ccc(NCC5CCC(F)(F)CC5)c([N+](=O)[O-])c4)c(Oc4cccc5[nH]cnc45)c3)CC2)=C(c2ccc(Cl)cc2)C1 [Example 456] and report it.
< 0.01 nM
